These entries and their values trace back to patent US6046235A.

# TARGET SYSTEM: LTA4 hydrolase (Cavia porcellus)
# Construct: Lungs were excised from a Hartley guinea pig; from tissue; host or cells: Hartley guinea pig lung, 100,000×g supernatant, 40-70% ammonium sulfate fraction, dialyzed
# Sequence (P19602 1-611): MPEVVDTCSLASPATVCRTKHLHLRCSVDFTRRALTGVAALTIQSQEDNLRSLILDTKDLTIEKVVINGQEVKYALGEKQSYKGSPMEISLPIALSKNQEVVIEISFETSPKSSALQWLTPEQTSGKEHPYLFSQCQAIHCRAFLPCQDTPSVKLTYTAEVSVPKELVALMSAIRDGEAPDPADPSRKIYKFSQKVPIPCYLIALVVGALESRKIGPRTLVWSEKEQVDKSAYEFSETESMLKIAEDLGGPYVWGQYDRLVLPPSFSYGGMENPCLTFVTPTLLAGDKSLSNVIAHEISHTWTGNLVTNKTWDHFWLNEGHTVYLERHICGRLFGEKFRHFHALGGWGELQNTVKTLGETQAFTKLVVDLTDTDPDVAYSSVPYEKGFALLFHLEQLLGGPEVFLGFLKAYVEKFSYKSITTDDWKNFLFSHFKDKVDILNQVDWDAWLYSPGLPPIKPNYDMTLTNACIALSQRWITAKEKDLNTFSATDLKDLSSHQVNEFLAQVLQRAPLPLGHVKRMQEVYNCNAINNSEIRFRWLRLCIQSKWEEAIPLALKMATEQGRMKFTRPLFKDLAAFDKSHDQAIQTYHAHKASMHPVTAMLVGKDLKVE
# ASSAY REMARKS: LTA4 hydrolase inhibition (LTB4 formed from LTA4, guinea pig lung enzyme preparation)
# Assay type: biochemical
# CONDITION NOTES: Comparison Test; same conditions as Pharmacological Test; read-out: IC50
METRIC: IC50 (µM)

CC(C)(C)c1ccc(CSC[C@H](NC(=O)C(CS)Cc2ccccc2)C(=O)O)cc1 (stereo partly shown) [known compound [II], reference compound] : 4.5
